Assay: qHTS of pediatric cancer cell lines to identify multiple opportunities for drug repurposing: Primary screen for NB-EBc1 cells (AID 1347095)
Settings: NB-EBc1 neuroblastoma viability, CellTiter-Glo luminescence, 48 h; series mostly up to 46 µM
Results filed as inconclusive are left out. Active and inactive are the calls of the source. Calls come from the whole dose curve; as a rule, active = well fitted cell-killing curve with a large enough effect; inconclusive = small, poorly fitted or top-dose-only effect; inactive = no such curve, though single readings can be large or run the other way.
Result category, one only: active, inactive

- compound: "Cc1coc2c1C(=O)C(=O)c1c-2ccc2c1CCCC2(C)C"
  group_label: "active"
- compound: "Nc1ccc(S(=O)(=O)Nc2ncccn2)cc1"
  group_label: "inactive"

Request: Could you kindly confirm the outcome this assay logged for "Cn1c(CNc2ccc(C(=N)N)cc2)nc2cc(C(=O)N(CCC(=O)O)c3ccccn3)ccc21" ?
Response: inactive

Request: What is the recorded call for this compound in the test? COc1ccc(C(=O)CC2(O)C(=O)Nc3c(Cl)ccc(Cl)c32)cc1 (stereo unspecified)
Response: active

Request: Given "CC(=O)SC[C@@H](C)C(=O)N1CCC[C@H]1C(=O)N[C@@H](Cc1ccccc1)C(=O)O" , state the outcome it received in this test.
Response: inactive

Request: What was the test verdict on "CC[C@@H]1C(=O)N(C)c2cnc(Nc3ccc(C(=O)NC4CCN(C)CC4)cc3OC)nc2N1C1CCCC1" ?
Response: active

Request: Could you kindly confirm the outcome this assay logged for "CC(C)(C)OC(=O)Nc1ccc(-c2cc(C(=O)NCCCCCCC(=O)NO)no2)cc1" ?
Response: active

Request: Assay outcome for "CC[C@H]1CN2CCc3cc(OC)c(OC)cc3[C@H]2C[C@@H]1C[C@@H]1NCCc2cc(OC)c(OC)cc21" : what was it?
Response: active

Request: Could you please tell me the result logged for "OCc1ccc(-c2ccc(-c3ccc(CO)s3)o2)s1" in this assay?
Response: active

Request: Call for entry "O=C(O)CCCc1c[nH]c2ccccc12" :
Response: active

Request: What is the recorded call for this compound in the test? "CCn1cc(-c2ccnc3[nH]c(-c4cccc(CN(C)C)c4)cc23)c(-c2ccc(NC(=O)N(C)C)cc2)n1"
Response: active

###

Experiment: Quantitative High-Throughput drug screen in 47 multiple myeloma cell lines against the NCATS MIPE library collection: AMO1_DSMZ cell viability assay (AID 1918927; note: nearly all actives have a fitted effect of over 30% in size)
Settings: AMO1 myeloma cells viability, CellTiter-Glo ATP luminescence, 48 h; series mostly up to 45.8 µM
Results filed as inconclusive are left out. Calls of active or inactive are those of the source. Calls follow the shape of the dose curve; as a rule, active = well fitted cell-killing curve with a large enough effect; inconclusive = small, poorly fitted or top-dose-only effect, or effect the other way; inactive = no such curve, though single readings can be large or run the other way.
Please reply with one of these outcomes: active, inactive

- compound: "COc1ccc(F)c(F)c1C(=O)c1cnc(NC2CCN(S(C)(=O)=O)CC2)nc1N"
  group_label: "active"
- compound: "CN(C)CC=CC(=O)Nc1cc2c(Nc3ccc(F)c(Cl)c3)ncnc2cc1O[C@H]1CCOC1"
  group_label: "active"
- compound: "COc1cc2ncnc(Nc3ccc(F)c(Cl)c3)c2cc1NC(=O)C=CCN1CCCCC1"
  group_label: "active"
- compound: "C=C1C(=CC=C2CCCC3(C)[C@@H]([C@H](C)C=CC=CC(O)(CC)CC)CC[C@@H]23)C[C@@H](O)C[C@@H]1O (some centres not stated)"
  group_label: "active"
- compound: "CNc1nccc(-c2cccnc2Oc2cc(C(=O)Nc3cccc(C(F)(F)F)c3)ccc2C)n1"
  group_label: "active"

Request: Please state the recorded outcome for this compound: "O=C(Nc1cc(C(F)(F)F)cc(C(F)(F)F)c1)c1cc(Cl)ccc1O"
Response: active

Request: What did the test return for "Fc1cc(-c2cccc3ncc(-c4cnn(C5CCNCC5)c4)nc23)cc(F)c1CN1CCOCC1" ?
Response: active

###

Test: qHTS drug screen for cell cycle checkpoint inhibitors in PARPi-resistant BRCA-mutant ovarian cancer cell lines. (AID 1963452)
Details: PEO1/OlaR viability, CellTiter-Glo luminescence, 96 h; hits give low values
From the text: Women's Malignancies Branch, Center for Cancer Research (CCR), National Cancer Institute (NCI), National Institutes of Health (NIH), Bethesda, MD Poly (ADP-ribose) polymerase inhibitors (PARPis) have changed the treatment paradigm in breast cancer gene (BRCA) - mutant high-grade serous ovarian carcinoma (HGSC). […] 6; Detection; Luminescence, PHERAstar (BMG Labtech) plate reader. […] 6. Luminescence readings were taken using PHERAstar (BMG Labtech). […]
Z-AUC vs -0.8: less than gives T; not less than gives F.

- structure_smiles: "CCN(CC)CCNC(=O)c1ccc2nc(-c3ccccc3)c(-c3ccc(CN4CCC(n5c(=O)[nH]c6ccccc65)CC4)cc3)nc2c1"
  group_label: "T"

Request: Determine if "C1Cc2[nH]nc(-c3nn[nH]n3)c2C1" shows Z-AUC strictly lower than -0.8.
Response: F

Request: Does this compound meet the criterion Z-AUC < -0.8? "CC(C)c1cnn2c(NCc3ccccc3)cc(N[C@@H](CO)[C@H](O)CO)nc12"
Response: T

Request: For this compound, is Z-AUC lower than -0.8? "CN1CC[C@@H](c2c(O)cc(O)c3c(=O)cc(-c4ccccc4Cl)oc23)[C@@H](O)C1"
Response: F

Request: Consider the compound "CCn1nnc2c(N3CCOCC3)nc(-c3ccc(NC(=O)Nc4ccc(C(=O)N5CCN(C)CC5)cc4)cc3)nc21" . Is its Z-AUC strictly less than -0.8?
Response: T

###

Experiment: qHTS of pediatric cancer cell lines to identify multiple opportunities for drug repurposing: Primary screen for BT-12 cells (AID 1347101); note: nearly all actives have a fitted effect of over 25% in size
Conditions: BT-12 viability, CellTiter-Glo luminescence, 48 h; series mostly up to 57.3 µM
Inconclusive results are not listed. Calls of active or inactive are those of the source. Calls follow the shape of the dose curve; as a rule, active = well fitted cell-killing curve with a large enough effect; inconclusive = small, poorly fitted or top-dose-only effect; inactive = flat fitted curve, though single readings scatter.
Bench note: report the call from yes (active), no (inactive)

Reference set, count: 4
- compound: "CC[C@@H]1C(=O)N(C)c2cnc(Nc3ccc(C(=O)NC4CCC(N5CCN(CC6CC6)CC5)CC4)cc3OC)nc2N1C(C)C (stereo not given in full)"
  group_label: "yes"
- compound: "CCC[C@H](NC(=O)C(C#N)=Cc1cccc(Br)n1)c1ccccc1"
  group_label: "yes"
- compound: "CC=C1NC(=O)[C@H]2CSSCCC=C[C@H](CC(=O)N[C@H](C(C)C)C(=O)N2)OC(=O)[C@H](C(C)C)NC1=O"
  group_label: "yes"
- compound: "Cc1cc(C(=O)N2CCN(c3cccc(Cl)c3)CC2)n(-c2ccccc2)n1"
  group_label: "yes"

Request: Hey, what did the test say about O=c1[nH]c(=O)n(C2CCCO2)cc1F (stereo not given) ?
Response: no

###

Tested on: SKOV3
Experiment: Primary qHTS to identify gynecologic anti-cancer compounds using libraries of approved drugs and bioactive compounds (AID 1345084); note: nearly all actives have a fitted effect of over 55% in size
Conditions: Gynecologic cancer cell panel viability, ATPlite luminescence, 48 h; series mostly up to 57.5 µM
Records with an inconclusive call do not appear. Active and inactive are the calls of the source. The call rests on the fitted dose curve; in most records, active means well fitted cell-killing curve with a large enough effect; inconclusive means small, poorly fitted or top-dose-only effect, or effect the other way; inactive means flat fitted curve, though single readings scatter.
// one of active, inactive, no free text

Example results:
- structure_smiles: "CNC(=O)c1ccccc1Nc1nc(Nc2ccc(N3CCOCC3)cc2OC)ncc1Cl"
  subject_of_test: "SKOV3"
  group_label: "active"
- structure_smiles: "Nc1nc(Nc2ccc(S(N)(=O)=O)cc2)nn1C(=O)c1c(F)cccc1F"
  subject_of_test: "SKOV3"
  group_label: "inactive"

Switching to the query record.
Request: Dear colleague, could you share the recorded outcome for "C=CC(=O)Nc1cccc(Oc2nc(Nc3ccc(N4CCN(C)CC4)cc3)ncc2Cl)c1" when you have a moment?
Response: active

###

Assay: Quantitative High-Throughput drug screen in 47 multiple myeloma cell lines against the NCATS MIPE library collection: ARD_JJKsccE7 cell viability assay (AID 1918929)
Details: ARD myeloma cell line viability, CellTiter-Glo, 48 h; series mostly up to 45.8 µM
Records with an inconclusive call do not appear. Activity calls are given as the source filed them. The call rests on the fitted dose curve; in most records, active means well fitted cell-killing curve with a large enough effect; inconclusive means small, poorly fitted or top-dose-only effect, or effect the other way; inactive means no such curve, though single readings can be large or run the other way.
Your response should consist of one outcome taken from YES for active, NO for inactive

Example cases with answers are listed next.
- compound: "Nc1nccc(Oc2ccc(NC(=O)c3c[nH]cc(-c4ccc(F)cc4)c3=O)cc2F)c1Cl"
  group_label: "YES"
- compound: "Nc1ccccc1NC(=O)c1ccc(CNc2nccc(-c3cccnc3)n2)cc1"
  group_label: "YES"
- compound: "Nc1ccn([C@@H]2O[C@H](CO)[C@H](O)C2(F)F)c(=O)n1"
  group_label: "YES"
- compound: "Cc1c(NC(=O)OC[C@@H]2COCCN2)cn2ncnc(Nc3ccc4c(cnn4Cc4cccc(F)c4)c3)c12"
  group_label: "YES"
- compound: "C[C@]12CC[C@H](O)CC1=CCC1C2CC[C@]2(C)C(n3cnc4ccccc43)=CCC12 (some centres not stated)"
  group_label: "NO"

Request: Please state the recorded outcome for this compound: "Cc1c(Cn2c(C)nc3c(C(=O)O)cc(N4CCOCC4)cc32)cccc1C(F)(F)F"
Response: NO

Request: How did this test come out for "C#Cc1cccc(Nc2ncnc3cc(OC)c(OCCCCCCC(=O)NO)cc23)c1" ?
Response: YES

###

Test: Quantitative High-Throughput drug screen in 47 multiple myeloma cell lines against the NCATS MIPE library collection: KMS26_JCRB cell viability assay (AID 1918975); note: nearly all actives have a fitted effect of over 45% in size
Conditions: KMS26 myeloma cells viability, CellTiter-Glo ATP, 48 h; series mostly up to 45.8 µM
Inconclusive results are not listed. Activity calls are given as the source filed them. Calls follow the shape of the dose curve; as a rule, active = well fitted cell-killing curve with a large enough effect; inconclusive = small, poorly fitted or top-dose-only effect, or effect the other way; inactive = no such curve, though single readings can be large or run the other way.
Hi there, use one of these labels in your reply, thanks! active, inactive

Below, 10 molecules whose answers are already recorded.
- molecule: "O=C(NC1CCNCC1)c1[nH]ncc1NC(=O)c1c(Cl)cccc1Cl"
  group_label: "active"
- molecule: "N#CCNC(=O)c1ccc(-c2ccnc(Nc3ccc(N4CCOCC4)cc3)n2)cc1"
  group_label: "active"
- molecule: "O=C(Nc1nc2cccc(-c3ccc(CN4CCS(=O)(=O)CC4)cc3)n2n1)C1CC1"
  group_label: "active"
- molecule: "COc1cc2nccc(Oc3ccc(NC(=O)C4(C(=O)Nc5ccc(F)cc5)CC4)cc3)c2cc1OC"
  group_label: "active"
- molecule: "COc1cc(C(=O)N2CCC(N3CCN(C)CC3)CC2)ccc1Nc1ncc2c(n1)N(C)c1ccccc1C(=O)N2C"
  group_label: "active"
- molecule: "CCn1cc(-c2ccnc3[nH]c(-c4cccc(CN(C)C)c4)cc23)c(-c2ccc(NC(=O)N(C)C)cc2)n1"
  group_label: "active"
- molecule: "CC1=C(CO)C(=O)O[C@@H]([C@@H](C)[C@H]2CC[C@H]3[C@@H]4C[C@H]5O[C@]56[C@@H](O)C=CC(=O)[C@]6(C)[C@@H]4CC[C@]23C)C1"
  group_label: "active"
- molecule: "C[C@H]1C[C@@H]2[C@@H]([C@@H](O)C[C@@]3(C)[C@H]2CC[C@]3(O)C(=O)CO)[C@@]2(C)C=CC(=O)C=C12"
  group_label: "inactive"
- molecule: "CN1c2cc(O)c(N=NC(N)=O)cc2CC1S(=O)(=O)O (configuration not stated)"
  group_label: "inactive"
- molecule: "CC(C)[C@H](C(=O)Nc1ccc(C(=O)NO)cc1)c1ccccc1"
  group_label: "active"

Request: Lab log entry: "CC(C)(C)NC(=O)[C@H]1CN(Cc2cccnc2)CCN1C[C@@H](O)C[C@@H](Cc1ccccc1)C(=O)N[C@H]1c2ccccc2C[C@H]1O" — outcome as called in the assay?
Response: active

Request: Hello, I am checking results. What call was entered for "C[C@@]12O[C@@H](C[C@]1(O)CO)n1c3ccccc3c3c4c(c5c6ccccc6n2c5c31)CNC4=O" ?
Response: active

Request: Status in this test for "COCCOc1ccc2c(c1)ncn2-c1ccc2cccc(N3CCC(N)CC3)c2n1" ?
Response: active

Request: Please indicate how the test categorized "Cc1cc(Nc2nc(N[C@@H](C)c3ccc(F)cc3)c(C#N)cc2F)n[nH]1" .
Response: active

Request: I'd appreciate the recorded outcome for "C=CC(=O)Nc1cccc(Oc2nc(Nc3ccc(N4CCN(C)CC4)cc3OC)ncc2Cl)c1" from this test.
Response: active

Request: Could you check what this test reported for "C[C@@H]1COC(Nc2ccc3ncnc(Nc4ccc(OCc5nccs5)c(Cl)c4)c3c2)=N1" ?
Response: active

Request: Given "O=C(C=Cc1c(C(=O)O)[nH]c2cc(Cl)cc(Cl)c12)Nc1ccccc1" , state the outcome it received in this test.
Response: inactive

Value source: PubChem BioAssay (NCATS)
